# Assay target: Alpha-2A adrenergic receptor (Homo sapiens); note: assay procedure not described here
# Sequence (P08913 whole entry): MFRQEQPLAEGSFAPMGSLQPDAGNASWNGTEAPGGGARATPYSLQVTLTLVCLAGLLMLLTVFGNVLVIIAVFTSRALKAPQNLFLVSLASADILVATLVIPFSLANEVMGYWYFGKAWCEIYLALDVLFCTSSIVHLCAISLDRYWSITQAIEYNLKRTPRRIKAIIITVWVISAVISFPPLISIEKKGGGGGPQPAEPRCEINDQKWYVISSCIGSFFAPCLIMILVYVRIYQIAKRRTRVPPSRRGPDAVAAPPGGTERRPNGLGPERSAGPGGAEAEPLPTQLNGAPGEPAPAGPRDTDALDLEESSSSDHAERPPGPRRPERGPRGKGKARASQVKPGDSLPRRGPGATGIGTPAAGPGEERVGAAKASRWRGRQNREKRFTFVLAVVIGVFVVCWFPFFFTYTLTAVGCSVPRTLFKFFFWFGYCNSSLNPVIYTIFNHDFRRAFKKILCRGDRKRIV
# Type: functional, cell-based
A collection of compounds and their measured AC50

Recorded AC50, per entry:
Compound	Assay target	AC50
CC1(C)O[C@@H]2C[C@H]3[C@@H]4CCC5=CC(=O)C=C[C@]5(C)[C@H]4[C@@H](O)C[C@]3(C)[C@]2(C(=O)CO)O1 [DESONIDE]	Alpha-2A adrenergic receptor (Homo sapiens)	> 10 µM
CN(C)CCc1c[nH]c2ccc(C[C@H]3COC(=O)N3)cc12	Alpha-2A adrenergic receptor (Homo sapiens)	> 30 µM
COc1ccc(CC(C)(C)NC[C@H](O)c2cc(O)cc3c2OCC(=O)N3)cc1	Alpha-2A adrenergic receptor (Homo sapiens)	10 µM
COc1ccc2c3c1O[C@H]1C(=O)CC[C@@]4(O)[C@@H](C2)N(C)CC[C@]314	Alpha-2A adrenergic receptor (Homo sapiens)	> 30 µM
Fc1ccc(C(c2ccccc2)(c2ccccc2F)n2ccnc2)cc1 (stereo unspecified)	Alpha-2A adrenergic receptor (Homo sapiens)	> 30 µM

Noted for Nc1nc(N)nc(-c2cc(Cl)ccc2Cl)n1 : its AC50 reads > 30 µM

So, Nc1nc(NC2CC2)c2ncn([C@H]3C=C[C@@H](CO)C3)c2n1 ? Its AC50 was > 30 µM

Form field AC50, entry Cc1ccc(-c2cc(C(F)(F)F)nn2-c2ccc(S(N)(=O)=O)cc2)cc1 : > 10 µM
